B1: EEHEE_rd4_0363 (parent)
chain: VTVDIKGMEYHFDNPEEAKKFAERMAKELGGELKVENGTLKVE

# Variants of: B1
# Assay Details: folding stability dG (cDNA display proteolysis); higher = more stable
# Condition Info: PBS, room temperature
Kind request: treat 2 kcal/mol as inclusive, so folding stability dG at 2 kcal/mol or higher is Fulfilled, anything lower is Not fulfilled.

Determine whether measured folding stability dG meets or exceeds 2 kcal/mol for E28G
Not fulfilled

Determine whether measured folding stability dG meets or exceeds 2 kcal/mol for E28S
Not fulfilled

Determine whether measured folding stability dG meets or exceeds 2 kcal/mol for K19F
Fulfilled

Determine whether measured folding stability dG meets or exceeds 2 kcal/mol for G38E
Not fulfilled

Determine whether measured folding stability dG meets or exceeds 2 kcal/mol for K20R
Fulfilled

Determine whether measured folding stability dG meets or exceeds 2 kcal/mol for F21W
Not fulfilled

Determine whether measured folding stability dG meets or exceeds 2 kcal/mol for E9W
Fulfilled

Determine whether measured folding stability dG meets or exceeds 2 kcal/mol for G31D
Not fulfilled

Determine whether measured folding stability dG meets or exceeds 2 kcal/mol for A26L
Not fulfilled

Determine whether measured folding stability dG meets or exceeds 2 kcal/mol for L40T
Not fulfilled

Determine whether measured folding stability dG meets or exceeds 2 kcal/mol for D4M
Fulfilled

Determine whether measured folding stability dG meets or exceeds 2 kcal/mol for I5H
Not fulfilled

Determine whether measured folding stability dG meets or exceeds 2 kcal/mol for A22N
Not fulfilled

Determine whether measured folding stability dG meets or exceeds 2 kcal/mol for G7Y
Not fulfilled

Determine whether measured folding stability dG meets or exceeds 2 kcal/mol for G30N
Not fulfilled

Determine whether measured folding stability dG meets or exceeds 2 kcal/mol for K20T
Not fulfilled

Determine whether measured folding stability dG meets or exceeds 2 kcal/mol for V42T
Not fulfilled

Determine whether measured folding stability dG meets or exceeds 2 kcal/mol for T39S
Not fulfilled

Determine whether measured folding stability dG meets or exceeds 2 kcal/mol for E43G
Not fulfilled

Determine whether measured folding stability dG meets or exceeds 2 kcal/mol for L33V
Fulfilled

Determine whether measured folding stability dG meets or exceeds 2 kcal/mol for A26V
Not fulfilled

Determine whether measured folding stability dG meets or exceeds 2 kcal/mol for V42K
Not fulfilled

Determine whether measured folding stability dG meets or exceeds 2 kcal/mol for L40P
Not fulfilled

Determine whether measured folding stability dG meets or exceeds 2 kcal/mol for G30Q
Not fulfilled

Determine whether measured folding stability dG meets or exceeds 2 kcal/mol for E36P
Not fulfilled

Determine whether measured folding stability dG meets or exceeds 2 kcal/mol for E17Q
Not fulfilled

Determine whether measured folding stability dG meets or exceeds 2 kcal/mol for Y10H
Not fulfilled
